Provide the recorded pKd for the entries that follow.
system-under-test: T1, PadR WT (Bacillus subtilis, UniProt E0TW95 1-182)
T1 sequence: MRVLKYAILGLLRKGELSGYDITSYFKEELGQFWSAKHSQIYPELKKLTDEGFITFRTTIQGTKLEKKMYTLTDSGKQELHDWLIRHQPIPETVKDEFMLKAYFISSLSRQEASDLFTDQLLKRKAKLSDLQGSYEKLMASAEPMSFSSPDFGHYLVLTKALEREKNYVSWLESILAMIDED
measurement-description: fluorescence polarization
Numbers only, as −log10 of the molar value.

Some entries whose results are on file:
// query Quick check: pKd of operator G9A/G9'A (dsDNA) DNA 1: CGGAACATATAAATAGTTATATGATTAC DNA 2: GTAATCATATAACTATTTATATGTTCCG ?
// result 7.80

// query Quick check: pKd of operator T17A/T17'A (dsDNA) DNA 1: CGGAACATGTATATAGATACATGATTAC DNA 2: GTAATCATGTATCTATATACATGTTCCG ?
// result 8.03

// query Quick check: pKd of operator C6A/C6'A (dsDNA) DNA 1: CGGAAAATGTAAATAGTTACATTATTAC DNA 2: GTAATAATGTAACTATTTACATTTTCCG ?
// result 6.51

// query Quick check: pKd of bridge operator (dsDNA) DNA 1: AGTTACATGATTACCGGAACATGTAAAT DNA 2: ATTTACATGTTCCGGTAATCATGTAACT ?
// result 8.05

New cases:
// query Quick check: pKd of operator C6T/C6'T (dsDNA) DNA 1: CGGAATATGTAAATAGTTACATAATTAC DNA 2: GTAATTATGTAACTATTTACATATTCCG ?
// result 6.79
